Values from BindingDB's records for patent US20260062376

- tested_target: Cannabinoid receptor 1 (Mus musculus, UniProt P47746)
- Sequence (P47746 whole entry): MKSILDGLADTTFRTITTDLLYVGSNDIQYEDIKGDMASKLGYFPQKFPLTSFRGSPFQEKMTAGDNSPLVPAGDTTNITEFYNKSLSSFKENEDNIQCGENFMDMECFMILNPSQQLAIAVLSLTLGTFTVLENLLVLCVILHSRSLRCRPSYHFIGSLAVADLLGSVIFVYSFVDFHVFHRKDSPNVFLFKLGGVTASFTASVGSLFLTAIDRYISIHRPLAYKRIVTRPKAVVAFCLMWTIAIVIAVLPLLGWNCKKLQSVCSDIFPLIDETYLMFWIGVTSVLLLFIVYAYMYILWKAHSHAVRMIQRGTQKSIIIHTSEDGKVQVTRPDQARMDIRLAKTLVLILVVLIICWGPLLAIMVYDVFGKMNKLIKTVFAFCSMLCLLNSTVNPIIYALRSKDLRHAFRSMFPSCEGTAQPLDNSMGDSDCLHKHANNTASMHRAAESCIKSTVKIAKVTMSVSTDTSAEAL
Can you tell me IC50 for the items I'm about to list?
Numbers only; they are read as nM.

-- ask Bench note: what IC50 did Cc1ccccc1CCNc1c(Nc2ccc(Cl)cc2)c(=O)c1=O [US20260062376, Compound 35] show?
-- reply 2690

-- ask Now consider O=c1c(NCCc2ccccn2)c(Nc2ccc(Cl)cc2)c1=O [US20260062376, Compound 36] and answer again.
-- reply 1780

-- ask Now consider O=c1c(NCCc2ccc(Br)cc2)c(Nc2ccc(Cl)cc2)c1=O [US20260062376, Compound 38] and answer again.
-- reply 871

-- ask Now consider O=c1c(NCCc2ccc(Cl)cc2Cl)c(Nc2ccc(Cl)cc2)c1=O [US20260062376, Compound 44] and answer again.
-- reply 525

-- ask Now consider O=c1c(NCCc2ccc(Cl)cc2)c(Nc2ccc(Cl)cc2)c1=O [US20260062376, Compound 13] and answer again.
-- reply 275
